system: RBL-2H3 cells; test: Maximum tolerated concentration (cytotoxicity by lactate dehydrogenase release); type: cell-based, rat; details: highest concentration not causing cytotoxicity, LDH release
measure: MTC (maximum tolerated concentration)

CCCCCCCCCCCCCCCC[N+]1(CCCS(=O)(=O)[O-])CCCCC1 [Compound 2a]
50 µM

[ask] What value of MTC (maximum tolerated concentration) has been reported for the following compound? CCCCCCCCCCCCCCCCCC[N+](C)(C)CCCS(=O)(=O)[O-] [Compound 1g]
[reply] 50 µM

[ask] What value of MTC (maximum tolerated concentration) has been reported for the following compound? CCCCCCCCCCCCCC[N+](C)(C)CC(CC)CS(=O)(=O)[O-] (centres unmarked) [Compound 1f]
[reply] 75 µM

[ask] What value of MTC (maximum tolerated concentration) has been reported for the following compound? CCCCCCCCCCCCCC[N@+]1(CCCS(=O)(=O)[O-])CCC[C@H](C(=O)N(CC)CC)C1 (racemic) [Compound 2c]
[reply] 100 µM

[ask] What value of MTC (maximum tolerated concentration) has been reported for the following compound? CCCCCCCCCCCCCC[N+](C)(C)CCCC(=O)[O-] [Compound 1o, 4-(Dimethyl(Tetradecyl)Ammonio)Butanoate]
[reply] 100 µM

[ask] What value of MTC (maximum tolerated concentration) has been reported for the following compound? CCCCCCCCCCCCCC[N+](C)(C)CCC(=O)[O-] [Compound 1k]
[reply] 100 µM

[ask] What value of MTC (maximum tolerated concentration) has been reported for the following compound? CCCCCCCCCCCCCC[N+](C)(C)CCS(=O)(=O)[O-] [Compound 1d]
[reply] 100 µM

[ask] What value of MTC (maximum tolerated concentration) has been reported for the following compound? CCCCCCCCCCCC[N+](C)(C)CCCP(=O)(O)O [Compound 1t]
[reply] 200 µM
